Molecular target: rabbit muscle glycogen phosphorylase a (GPa) (Oryctolagus cuniculus)
Sequence (P00489 2-843): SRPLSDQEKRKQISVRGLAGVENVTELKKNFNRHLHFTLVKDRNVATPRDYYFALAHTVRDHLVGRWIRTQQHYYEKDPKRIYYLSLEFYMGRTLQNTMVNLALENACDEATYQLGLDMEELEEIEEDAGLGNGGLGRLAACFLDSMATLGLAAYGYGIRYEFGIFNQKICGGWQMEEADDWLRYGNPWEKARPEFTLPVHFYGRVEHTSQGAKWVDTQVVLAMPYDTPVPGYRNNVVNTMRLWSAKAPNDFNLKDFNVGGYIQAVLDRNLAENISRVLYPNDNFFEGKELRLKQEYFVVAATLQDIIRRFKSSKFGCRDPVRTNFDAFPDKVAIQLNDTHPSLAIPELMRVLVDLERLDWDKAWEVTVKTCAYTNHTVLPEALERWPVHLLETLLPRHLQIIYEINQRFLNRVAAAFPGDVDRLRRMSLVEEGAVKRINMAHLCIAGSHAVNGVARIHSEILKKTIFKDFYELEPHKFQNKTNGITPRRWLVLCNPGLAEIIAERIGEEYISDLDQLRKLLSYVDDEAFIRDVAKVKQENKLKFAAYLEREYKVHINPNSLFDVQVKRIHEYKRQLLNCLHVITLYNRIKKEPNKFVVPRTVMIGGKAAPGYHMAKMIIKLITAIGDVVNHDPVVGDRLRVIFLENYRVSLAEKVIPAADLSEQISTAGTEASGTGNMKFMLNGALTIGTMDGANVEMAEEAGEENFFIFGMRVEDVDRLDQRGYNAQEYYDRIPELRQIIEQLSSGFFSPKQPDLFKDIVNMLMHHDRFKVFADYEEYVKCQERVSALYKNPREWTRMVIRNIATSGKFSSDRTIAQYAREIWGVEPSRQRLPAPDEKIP
reported-metric: pIC50
Notebook: values listed as pIC50 are -log10 of the concentration (mol/L).

Param item: CN(C)C(=O)[C@H](O)[C@H](Cc1ccccc1)NC(=O)c1cc2cc(Cl)ccc2[nH]1 ; param system: rabbit muscle glycogen phosphorylase a (GPa) (Oryctolagus cuniculus); output pIC50: 6.24
